Entries and their measured monocytes follow.
test: Tolerability in CD1 mice: hematology assays (Example 43); assay type: in vivo; conditions: 50 mg/kg s.c. twice per week for 6 weeks, blood
Strand notation (5' to 3'): a small letter for the sugar, then the base; units joined by * are phosphorothioate-linked, units joined directly phosphodiester-linked; [ ] holds rarer units or linkages, { } end groups; capitals alone tell only the bases. e = 2'-O-(2-methoxyethyl) (MOE); [5mC] = 5-methylcytosine; d = 2'-deoxy (DNA)
Please respond with the number in % and leave the unit unwritten.

Consider the following illustrative entries.
Substance	monocytes / %
ISIS 449709: 3-8-3, 4-8-4, 2-10-2, 3-10-3 or 4-10-4 MOE microwalk gapmer (Table 46) (antisense eG*e[5mC]*eA*e[5mC]*dA*dG*dT*dT*dT*d[5mC]*dT*dG*dG*d[5mC]*eA*eG*eG*e[5mC])	4
ISIS 449707: 3-8-3, 4-8-4, 2-10-2, 3-10-3 or 4-10-4 MOE microwalk gapmer (Table 46) (antisense e[5mC]*eA*e[5mC]*eA*dG*dT*dT*dT*d[5mC]*dT*dG*dG*e[5mC]*eA*eG*eG)	3
ISIS 449708: 3-8-3, 4-8-4, 2-10-2, 3-10-3 or 4-10-4 MOE microwalk gapmer (Table 46) (antisense eA*e[5mC]*eA*dG*dT*dT*dT*d[5mC]*dT*dG*dG*e[5mC]*eA*eG)	5

Qu. Please give measured monocytes of the following entry: ISIS 449710: 3-8-3, 4-8-4, 2-10-2, 3-10-3 or 4-10-4 MOE microwalk gapmer (Table 46) (antisense e[5mC]*eA*e[5mC]*dA*dG*dT*dT*dT*d[5mC]*dT*dG*dG*d[5mC]*eA*eG*eG)
Ans. 3

Qu. Please give measured monocytes of the following entry: ISIS 449711: 3-8-3, 4-8-4, 2-10-2, 3-10-3 or 4-10-4 MOE microwalk gapmer (Table 46) (antisense eA*e[5mC]*dA*dG*dT*dT*dT*d[5mC]*dT*dG*dG*d[5mC]*eA*eG)
Ans. 6
